Tested on: HT29
Settings: 72 h, relative to DMSO; 10 µM
Counter-ions that a name gives are not always drawn.
Measured Relative cell viability (%) accompanies every entry in the list below.

| molecule | readout.unit | Relative cell viability (%) |
| --- | --- | --- |
| CS(=O)(=O)CCNCc1ccc(-c2ccc3ncnc(Nc4ccc(OCc5cccc(F)c5)c(Cl)c4)c3c2)o1 | % | 94.3 |
| CC(=O)OCC(=O)[C@@]12N=C(C)O[C@@H]1C[C@H]1[C@@H]3CCC4=CC(=O)C=C[C@]4(C)[C@H]3[C@@H](O)C[C@@]12C | % | 91.95 |
| CC(C)(C)NCC(O)COc1cccc2c1CCC(=O)N2 (stereo not drawn) [Carteolol HCl] | % | 86.67 |
| C[N+](C)(C)CC(O)CC(=O)[O-] (racemic) [DL-Carnitine HCl] | % | 125.5 |
| Nc1cc(C(Cl)=C(Cl)Cl)c(S(N)(=O)=O)cc1S(N)(=O)=O | % | 49.03 |
| COC(=O)Nc1nc2cc(C(=O)c3ccc(F)cc3)ccc2[nH]1 | % | 16.95 |
